target under test: USP8 (Homo sapiens, UniProt P40818)
Sequence (P40818 1-1118): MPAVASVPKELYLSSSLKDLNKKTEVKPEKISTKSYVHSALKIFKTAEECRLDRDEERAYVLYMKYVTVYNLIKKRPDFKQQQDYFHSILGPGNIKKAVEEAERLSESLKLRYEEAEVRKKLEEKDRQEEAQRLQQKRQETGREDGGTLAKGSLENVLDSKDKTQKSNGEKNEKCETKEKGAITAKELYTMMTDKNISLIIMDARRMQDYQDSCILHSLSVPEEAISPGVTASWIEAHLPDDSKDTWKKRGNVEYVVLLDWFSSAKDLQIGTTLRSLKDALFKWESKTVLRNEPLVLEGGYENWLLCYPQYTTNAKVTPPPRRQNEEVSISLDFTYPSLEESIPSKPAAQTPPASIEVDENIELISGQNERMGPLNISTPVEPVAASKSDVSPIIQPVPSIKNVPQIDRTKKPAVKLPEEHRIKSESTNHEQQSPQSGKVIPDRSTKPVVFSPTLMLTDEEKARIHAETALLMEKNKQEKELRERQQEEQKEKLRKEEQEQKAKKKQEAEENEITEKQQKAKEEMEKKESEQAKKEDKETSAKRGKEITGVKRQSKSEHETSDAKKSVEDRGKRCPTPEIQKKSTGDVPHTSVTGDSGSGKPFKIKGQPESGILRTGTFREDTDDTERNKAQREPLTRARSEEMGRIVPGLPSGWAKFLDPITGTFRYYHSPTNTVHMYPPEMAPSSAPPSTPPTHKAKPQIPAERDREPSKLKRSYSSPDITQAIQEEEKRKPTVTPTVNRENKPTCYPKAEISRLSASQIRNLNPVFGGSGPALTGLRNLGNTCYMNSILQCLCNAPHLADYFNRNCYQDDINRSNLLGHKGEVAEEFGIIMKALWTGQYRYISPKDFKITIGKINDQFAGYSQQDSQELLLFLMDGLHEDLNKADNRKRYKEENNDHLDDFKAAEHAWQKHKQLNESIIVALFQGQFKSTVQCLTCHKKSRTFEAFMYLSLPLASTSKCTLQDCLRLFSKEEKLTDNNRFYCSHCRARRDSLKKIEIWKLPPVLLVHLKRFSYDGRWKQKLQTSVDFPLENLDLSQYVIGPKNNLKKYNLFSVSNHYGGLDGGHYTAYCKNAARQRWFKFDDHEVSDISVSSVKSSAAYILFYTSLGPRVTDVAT
quantity measured: IC50

Endpoint output: IC50 of Cc1nc2c(C(O)C(=O)N3CC4=C(C3)CN(S(=O)(=O)c3cnc5c(c3)OCCO5)C4)cccc2o1 (stereo not shown) . Value?
> 25 µM
